Where these numbers come from: patent US20240245673A1

Target: SARS-CoV-2 Papain like protease (PLpro) (Severe acute respiratory syndrome coronavirus 2 (2019-nCoV) (SARS-CoV-2), UniProt P0DTD1)
Assay: Papain Like Protease (PLpro) biochemical assay with profluorogenic substrate Z-RLRGG-AMC
Conditions: SARS-CoV-2 PLpro 6.25 nM, 25 μM Z-RLRGG-AMC substrate, 60 minute reaction; read-out: IC50
pIC50: −log10 of the molar value.

[
  {
    "compound": "Cc1ccccc1C(=O)NC(C)c1cc(CN2CCCC2=O)nc2ccccc12 (stereo in doubt) [Example 156]",
    "inequality_operator": "=",
    "pIC50": 5.14
  },
  {
    "compound": "Cc1ccccc1C(=O)NC(C)c1cc(CN)nc2ccccc12 (stereo in doubt) [Example 158]",
    "inequality_operator": "=",
    "pIC50": 5.26
  },
  {
    "compound": "Cc1cc(COCc2cscn2)ccc1C(=O)NC1(c2cc(-c3cnn(CS(C)(=O)=O)c3)nc3ccccc23)CC1 [Example 341]",
    "inequality_operator": ">",
    "pIC50": 9.00
  },
  {
    "compound": "Cc1ccc(N2CCC(N)C2=O)cc1C(=O)N[C@H](C)c1cc(-c2cnn(C)c2)nc2ccccc12 (stereo partly drawn) [Example 247]",
    "inequality_operator": "=",
    "pIC50": 7.04
  },
  {
    "compound": "COC(=O)c1c[nH]c(-c2cc(C(C)NC(=O)c3cc(CN)ccc3C)c3ccccc3c2)c1 (stereo not drawn) [Example 70]",
    "inequality_operator": "=",
    "pIC50": 7.96
  },
  {
    "compound": "Cc1ccccc1C(=O)NC(C)c1cc(NCc2cocn2)nc2ccccc12 (stereo not drawn) [Example 138]",
    "inequality_operator": "=",
    "pIC50": 6.03
  },
  {
    "compound": "Cc1ccccc1C(=O)N[C@H](C)c1cc(OCC2CCOC2)nc2ccccc12 (stereo partly drawn) [Example 43]",
    "inequality_operator": "=",
    "pIC50": 5.51
  },
  {
    "compound": "Cc1ccc(NC(=O)[C@H]2CCCCN2)cc1C(=O)N[C@H](C)c1cc(-c2cnn(C)c2)cc2ccccc12 (single isomer, unassigned) [Example 66]",
    "inequality_operator": "=",
    "pIC50": 8.10
  },
  {
    "compound": "Cc1cc(COCc2cocn2)ccc1C(=O)NC1(c2cc(-c3cc(C(=O)N(C)C)n[nH]3)cc3ncccc23)CC1 [Example 350]",
    "inequality_operator": ">",
    "pIC50": 9.00
  },
  {
    "compound": "Cc1cc(COCc2cscn2)ccc1C(=O)NC1(c2cc(-c3cnn(CCS(C)(=O)=O)c3)nc3ccccc23)CC1 [Example 328]",
    "inequality_operator": ">",
    "pIC50": 9.00
  },
  {
    "compound": "Cc1cc(C(=O)NC2(c3ncc[nH]3)CC2)ccc1C(=O)N[C@H](C)c1cc(-c2cnn(C)c2)nc2ccccc12 [Example 242]",
    "inequality_operator": "=",
    "pIC50": 8.22
  },
  {
    "compound": "Cc1cc(COCc2cocn2)ccc1C(=O)NC1(c2cc(-c3cc(C(=O)N(C)C)n[nH]3)nc3ccccc23)CC1 [Example 346]",
    "inequality_operator": ">",
    "pIC50": 9.00
  },
  {
    "compound": "Cc1ccc(CN)cc1C(=O)NC(C)c1cc(-c2cnn(C)c2)cc2ccccc12 (stereo not drawn) [Example 3]",
    "inequality_operator": "=",
    "pIC50": 7.32
  },
  {
    "compound": "Cc1cc(CNC(=O)c2cscn2)ccc1C(=O)NC(C)c1cc(-c2cnn(C)c2)cc2ccccc12 (stereo not drawn) [Example 54]",
    "inequality_operator": "=",
    "pIC50": 7.55
  },
  {
    "compound": "Cc1ccc(NC(=O)[C@H]2CCCCN2)cc1C(=O)N[C@H](C)c1cc(-n2ccnn2)nc2ccccc12 (single isomer, unassigned) [Example 30]",
    "inequality_operator": "=",
    "pIC50": 5.11
  }
]

###

Target: SARS-CoV-2 Papain like protease (PLpro) (Severe acute respiratory syndrome coronavirus 2 (2019-nCoV) (SARS-CoV-2), UniProt P0DTD1)
Assay: Papain Like Protease (PLpro) biochemical assay with profluorogenic substrate Z-RLRGG-AMC
Conditions: SARS-CoV-2 PLpro 6.25 nM, 25 μM Z-RLRGG-AMC substrate, 60 minute reaction; read-out: IC50
pIC50: −log10 of the molar value.
Binary call on pIC50: MET from 7 upward, NOT MET beneath that.

[
  {
    "molecule": "Cc1ccccc1C(=O)NC(C)c1cc(-c2cc(C3CC3)nn2C)nc2ccccc12 (stereo not shown) [Example 107]",
    "group_label": "NOT MET"
  },
  {
    "molecule": "Cc1cc(CC(=O)Nc2cscn2)ccc1C(=O)NC1(c2cc(-c3cnn(C)c3)nc3ccccc23)CC1 [Example 313]",
    "group_label": "MET"
  },
  {
    "molecule": "Cc1cc(COCc2cscn2)ccc1C(=O)NC1(c2cc(-c3cc(C(=O)N(C)CCN(C)C)n[nH]3)nc3ccccc23)CC1 [Example 329]",
    "group_label": "MET"
  },
  {
    "molecule": "Cc1ccccc1C(=O)N[C@H](C)c1cc(NC2COC2)nc2ccccc12 [Example 37]",
    "group_label": "NOT MET"
  },
  {
    "molecule": "Cc1cc(COCc2ncsc2CO)ccc1C(=O)NC1(c2cc(-c3cnn(C)c3)nc3ccccc23)CC1 [Example 330]",
    "group_label": "MET"
  },
  {
    "molecule": "COC[C@H](OCc1cocn1)c1ccc(C(=O)NC2(c3cc(-c4cnn(C)c4)cc4ncccc34)CC2)c(C)c1 (single isomer, unassigned) [Example 340]",
    "group_label": "MET"
  }
]

###

Molecular target: SARS-CoV-2 Papain like protease (PLpro) (Severe acute respiratory syndrome coronavirus 2 (2019-nCoV) (SARS-CoV-2), UniProt P0DTD1)
Assay: Papain Like Protease (PLpro) biochemical assay with profluorogenic substrate Z-RLRGG-AMC
Conditions: SARS-CoV-2 PLpro 6.25 nM, 25 μM Z-RLRGG-AMC substrate, 60 minute reaction; read-out: IC50
pIC50: −log10 of the molar value.

[
  {
    "compound": "Cc1ccc(CN)cc1C(=O)NC(C)c1cc(N2CCCC2=O)nc2ccccc12 (centres unmarked) [Example 34]",
    "pIC50": 5.84
  },
  {
    "compound": "Cc1ccccc1C(=O)NC(C)c1cc(-c2cncc(F)c2)nc2ccccc12 (centres unmarked) [Example 137]",
    "pIC50": 5.95
  },
  {
    "compound": "Cc1ccc(NC(=O)[C@H]2CCCCN2)cc1C(=O)N[C@H](C)c1cc(-n2ccnn2)nc2ccccc12 (single isomer, unassigned) [Example 29]",
    "pIC50": 7.00
  },
  {
    "compound": "Cc1ccc(C(N)=O)cc1C(=O)NC(C)c1cc(-n2ccnn2)cc2ccccc12 (centres unmarked) [Example 1]",
    "pIC50": 5.75
  },
  {
    "compound": "COCCn1cc(-c2cc(C(C)NC(=O)c3ccccc3C)c3ccccc3n2)cn1 (centres unmarked) [Example 112]",
    "pIC50": 6.53
  },
  {
    "compound": "Cc1ccccc1C(=O)NC(C)c1cc(-c2ccc3ncnn3c2)nc2ccccc12 (centres unmarked) [Example 118]",
    "pIC50": 5.88
  },
  {
    "compound": "Cc1cc(C(C)(C)NCc2cscn2)ccc1C(=O)N[C@H](C)c1cc(-c2cnn(C)c2)nc2ccccc12 [Example 241]",
    "pIC50": 8.15
  },
  {
    "compound": "CCCc1cc(C(C)NC(=O)c2ccccc2C)c2ccccc2n1 (stereo in doubt) [Example 153]",
    "pIC50": 6.51
  }
]

###

Target: SARS-CoV-2 Papain like protease (PLpro) (Severe acute respiratory syndrome coronavirus 2 (2019-nCoV) (SARS-CoV-2))
Test: Papain Like Protease (PLpro) biochemical assay with profluorogenic substrate Z-RLRGG-AMC
Details: SARS-CoV-2 PLpro 6.25 nM, 25 μM Z-RLRGG-AMC substrate, 60 minute reaction; read-out: IC50
pIC50: −log10 of the molar value.

[
  {
    "molecule": "Cc1ccc(CN)cc1C(=O)N[C@H](C)c1cc(-n2ccnn2)nc2ccccc12",
    "pIC50": 6.53
  },
  {
    "molecule": "Cc1cc(CN(Cc2cscn2)S(C)(=O)=O)ccc1C(=O)N[C@H](C)c1cc(-c2cnn(C)c2)nc2ccccc12",
    "pIC50": 6.86
  },
  {
    "molecule": "Cc1ccc(CN)cc1C(=O)NC1(c2cc(-c3cnn(C)c3)cc3ccccc23)CC1",
    "pIC50": 7.92
  },
  {
    "molecule": "Cc1ccccc1C(=O)NC(C)c1cc(-c2cnn(CCN3CCOCC3)c2)nc2ccccc12 (stereo not shown)",
    "pIC50": 6.53
  },
  {
    "molecule": "Cc1ccccc1C(=O)NC(C)c1cc(NCC2CCS(=O)(=O)CC2)nc2ccccc12 (stereo not shown)",
    "pIC50": 5.95
  },
  {
    "molecule": "Cc1ccc(CN)cc1C(=O)NC(C)c1cc(-n2ncc(C(F)(F)F)n2)nc2ccccc12 (stereo not shown)",
    "pIC50": 6.17
  },
  {
    "molecule": "Cc1ccc(N2C[C@H]3C[C@@H]2CN3C)cc1C(=O)N[C@H](C)c1cc(-c2cnn(C)c2)nc2ccccc12 (single isomer, unassigned) [Example 280]",
    "pIC50": 7.77
  }
]
